system: chromodacryorhea induced by carbacholine; assay: Anticholinergic activity in rats (antagonism against chromodacryorhea induced by carbacholine); type: in vivo, Sprague-Dawley male rats; settings: rats; p.o.; B = anticholinergic ED50, A = antiulcer ED50
# note: exactly 6 is not below, so it is Not fulfilled; use Fulfilled for B/A (ratio of ED50's for oral anti-cholinergic and anti-ulcer activities) strictly under it

O=C(NC1CC1)N1CCc2[nH]cnc2C1
Fulfilled
CCC1c2nc[nH]c2CCN1C(=O)NC(C)C (stereo not shown)
Not fulfilled
CCC1c2c(ncn2CC)CCN1C(=S)NC(C)C (stereo not shown)
Not fulfilled
CC(C)NC(=O)N1CCc2[nH]cnc2C1
Not fulfilled

Input: Field: below-cutoff. Rule: recorded B/A (ratio of ED50's for oral anti-cholinergic and anti-ulcer activities) strictly less than 6. Subject: "CC(C)NC(=S)N1CCc2[nH]cnc2C1"
Output: Fulfilled

Input: Consider "S=C(NC1CC1)N1CCc2[nH]cnc2C1" . Does its B/A (ratio of ED50's for oral anti-cholinergic and anti-ulcer activities) lie strictly below 6?
Output: Not fulfilled

Input: Threshold test, B/A (ratio of ED50's for oral anti-cholinergic and anti-ulcer activities) < 6: CN1[C@@H]2CC[C@H]1C[C@@H](OC(=O)C(CO)c1ccccc1)C2 (stereo partly shown) [Atropine, reference compound]
Output: Fulfilled

Input: In the record for "S=C(NC1CCCC1)N1CCc2[nH]cnc2C1" , is B/A (ratio of ED50's for oral anti-cholinergic and anti-ulcer activities) less than 6?
Output: Not fulfilled

Input: Is it true that B/A (ratio of ED50's for oral anti-cholinergic and anti-ulcer activities) reported for "CNC(=S)N1CCc2[nH]cnc2C1" is less than 6?
Output: Not fulfilled

Input: Could you please tell me whether B/A (ratio of ED50's for oral anti-cholinergic and anti-ulcer activities) recorded for "O=C(NC1CCCC1)N1CCc2[nH]cnc2C1" is less than 6?
Output: Fulfilled

Input: Record CNC(=S)NCCSCc1nc[nH]c1C [Methiamide, reference compound] : is its B/A (ratio of ED50's for oral anti-cholinergic and anti-ulcer activities) strictly below 6?
Output: Fulfilled

Input: Bench note: check whether CC(C)NC(=S)N1CCc2[nH]cnc2C1C1CCCCC1 (stereo not shown) shows B/A (ratio of ED50's for oral anti-cholinergic and anti-ulcer activities) below 6
Output: Not fulfilled

Input: Determine whether this compound shows B/A (ratio of ED50's for oral anti-cholinergic and anti-ulcer activities) lower than 6 (ties excluded): "CNC(=O)N1CCc2[nH]cnc2C1"
Output: Not fulfilled
